- Species on record: Rattus norvegicus
- MEASUREMENT_NOTES: DrugMatrix - Regimen: Daily Repeat
- Assay type: toxicity, organism-based, Sprague-Dawley
- Parameters: regimen Daily Repeat, gender Male, age 6-8 weeks
- STUDY_CONDITIONS: in vivo, po, 0 mg/kg, 120 h, tissue Blood, route oral GAVAGE, dose level Control, time 5 day, […]
Hi there, I'd appreciate the recorded LEUKOCYTE COUNT for every entry that follows.
One number for each entry, in x10E3/uL.

Example compounds with recorded LEUKOCYTE COUNT:
Asked: Report measured LEUKOCYTE COUNT; entry is CCc1ccc(CCOc2ccc(CC3SC(=O)NC3=O)cc2)nc1 (configuration not stated) [PIOGLITAZONE]
Given back: 11.33

Asked: Give the reported LEUKOCYTE COUNT for this compound. CC(C)c1c(C(=O)Nc2ccccc2)c(-c2ccccc2)c(-c2ccc(F)cc2)n1CC[C@@H](O)C[C@@H](O)CC(=O)O [ATORVASTATIN]
Given back: 8.82

Asked: Give LEUKOCYTE COUNT for the following compound: c1ccoc1 [FURAN]
Given back: 12.67

Asked: Please give the documented LEUKOCYTE COUNT of O=c1c(-c2ccc(O)cc2)coc2cc(O)cc(O)c12 [GENISTEIN]
Given back: 8.82

Asked: Fill in reported LEUKOCYTE COUNT for this entry: CC(=O)Oc1ccccc1C(=O)O [ASPIRIN]
Given back: 11.63

Lab note: each compound below needs its LEUKOCYTE COUNT filled in.
1. CCCCC(=O)N(Cc1ccc(-c2ccccc2-c2nnn[nH]2)cc1)[C@H](C(=O)O)C(C)C
2. CS(=O)(=O)Nc1ccc([N+](=O)[O-])cc1Oc1ccccc1 [NIMESULIDE]

Given back:
[12.2, 4.87]
